# systemTested: HLA-A*02:01 (Homo sapiens, UniProt P04439, D140Y/D185E/D98H/E176V/E277Q/G131W/G231S/I119V/I121R/I166T/I218V/L300P/L318F/N151K/N90K/P208A/P217A/Q86G/Q94H/R138H/R169H/T345S)
# testSummary: MHC binding assay (UV-ligand exchange, beta2m ELISA)
# measurementContext: binding to HLA-A*02:01, UV-ligand exchange
parameter: Peptide exchange (MHC class I binding score, peptide exchange yield)

Input line: What does the data say about its Peptide exchange (MHC class I binding score, peptide exchange yield)? Entry: 236 (SLFDGFFLTA; listed as Homo sapiens) [compound 236]
Output line: “++++” (≥75% = ++++)

Input line: Same again, this time with 80 (YLFDEIDQA; listed as Homo sapiens) [compound 80]
Output line: “+++” (≥50 = +++)

Input line: 294 (KLYGPEGLELV; listed as Homo sapiens) [compound 294] , same question.
Output line: “++++” (≥75% = ++++)

Input line: And the next one, 258 (RIYPFLLMV; listed as Homo sapiens) [compound 258] ?
Output line: “+++” (≥50 = +++)

Input line: How about 56 (GLQDLLFSL; listed as Homo sapiens) [compound 56] ?
Output line: “+++” (≥50 = +++)

Next:
Input line: Query (substance): 31 (KLYDEESLL; listed as Homo sapiens) [compound 31] ; field requested: Peptide exchange (MHC class I binding score, peptide exchange yield)
Output line: “++++” (≥75% = ++++)

meta.source: patent US10702592B2
